target-under-test: sigma-2 binding site (Cavia porcellus, UniProt H0V073)
Construct: Guinea pig whole membrane preparations (P2 microsomal fraction); from tissue; host or cells: guinea pig membranes (P2 microsomal fraction), as described by Weber et al; brain inferred from the sister test b489
Sequence (H0V073 1-176): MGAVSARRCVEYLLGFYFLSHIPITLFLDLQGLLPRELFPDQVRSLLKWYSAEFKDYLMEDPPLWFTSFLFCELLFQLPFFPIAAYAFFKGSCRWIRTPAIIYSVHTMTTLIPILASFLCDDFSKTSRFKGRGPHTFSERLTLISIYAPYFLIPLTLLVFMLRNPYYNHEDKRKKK
experiment: biochemical
Design: species or system guinea pig
experimental-setup: Table 10; read-out: SIGMA-2 KI vs. 3H-DTG + PENTAZOCINE MEAN
pKi: −log10 of the molar value.
Let's look at some compounds and their measured pKi.

compound | pKi
c1ccc(CCCCCN2CCN(Cc3ccccc3)CC2)cc1 | 7.95
CC(Cc1ccc(I)cc1)NCCCc1ccccc1 (racemic) | 7.12
COc1ccccc1N1CCN(CCCCN2C(=O)c3ccccc3C2=O)CC1 | 7.12
c1ccc(CCCCNCc2ccccc2)cc1 | 6.79
